Assay Summary: folding enthalpy; higher = less favourable; fluorescence melt of hairpins on a sequencing array, two-state fit
Condition Context: sodium 0.088 M
Entries and their folding enthalpy
# number only, unit kcal/mol dropped from output

{"Sequence Entry": "GTCTACGGAAACGTAGGC (.(((((....))))).)", "folding enthalpy (kcal/mol)": -29.2}
{"Sequence Entry": "GATCGAAGCCTCGATC ((((((....))))))", "folding enthalpy (kcal/mol)": -33}
{"Sequence Entry": "GGCCTCGAAAGAGAAGCC ((((((....)))..)))", "folding enthalpy (kcal/mol)": -26}
{"Sequence Entry": "GGACACGAAAGTGACTCC ((((((....)))..)))", "folding enthalpy (kcal/mol)": -14.2}
{"Sequence Entry": "GTCTATGGAAACATAGAC (((((((....)))))))", "folding enthalpy (kcal/mol)": -42.7}

Record GATCATGACAATGATC ((((((....)))))) . Reported folding enthalpy: -40.6

Form field folding enthalpy, entry GCCATAGGAAACTACGGC (((.(((....))).))) : -29.9

Memo: CGACGACGGAAACGTTCG (((..(((....)))))) , reported folding enthalpy: -14.5

* * *

# Tm values compiled below
Assay Summary: melting temperature; fluorescence melt of hairpins on a sequencing array, two-state fit, raised by 9.35 °C to match UV melts
Condition Context: sodium 0.088 M
Number in °C, nothing else.

{"Sequence Entry": "GCGTTGTCGAAAGACCGC (((..(((....))))))", "Quantity": "Tm", "Unit Name": "°C", "Numeric Value": 50.6}

Okay, now this sequence:
Tm recorded for this sequence, GATCAGGCCACTGATC ((((((....)))))) , is 60.8

* * *

Assay Summary: melting temperature; fluorescence melt of hairpins on a sequencing array, two-state fit, raised by 9.35 °C to match UV melts
Condition Context: sodium 0.088 M
Values of Tm strictly less than 50 °C map to YES, and values of at least 50 °C map to NO.

Example cases with answers are listed next.
{"Sequence Entry": "GATCTCTGGGGAGATC ((((((....))))))", "Assigned Label": "NO"}
{"Sequence Entry": "TCACAGAAATGTGA (((((....)))))", "Assigned Label": "YES"}
{"Sequence Entry": "GCGTGTCGAAAGACCCGC (((.(((....))).)))", "Assigned Label": "NO"}
{"Sequence Entry": "GGTTACGGAAACGTAACC (((((((....)))))))", "Assigned Label": "NO"}
{"Sequence Entry": "GTGAACGGAAACGCTCAC ((((.((....)).))))", "Assigned Label": "YES"}

Incoming: Lab note: Tm threshold 50 °C. Does this sequence come in strictly under it? GATCGATTCGTCGATC ((((((....))))))
Outgoing: NO

Incoming: Determine whether this sequence shows Tm lower than 50 °C (ties excluded): CGTGCGGAAACGCTAACG ((((((....)))..)))
Outgoing: YES

Incoming: In plain terms, does GAGACGACGAAAGTCCTC (((..(((....)))))) come in under 50 °C for Tm?
Outgoing: YES

Incoming: Criterion: Tm strictly below 50 °C. Is it met by GGCACTGCGAAAGCAGCC (((..(((....)))))) ?
Outgoing: YES

Incoming: Dear colleague, could you confirm whether Tm of GGGTAAACGAAAGTTCCC (((..(((....)))))) falls below 50 °C? Thanks.
Outgoing: YES

Incoming: Quick check: does GGCTACGAAAGTAGCGCC ((((((....)))..))) have Tm under 50 °C?
Outgoing: NO

Incoming: # TODO verify Tm < 50 °C strictly for this sequence: GCTGGTGGAAACATCAGC ((((.((....)).))))
Outgoing: NO
